Consider the following molecules and their measured GI50 readings.
System: SNB-75
method-notes: NCI tumour cell line growth inhibition, 48 h
Activity calls are given as the source filed them. Rule as the data show it: active = GI50 up to about 1.1 µM and inactive = higher.

molecule: Nc1nc2c(C(=O)O)c3ccc([N+](=O)[O-])cc3c(=O)n2c2ccccc12
GI50: 3.44 µM (inactive)
--
molecule: O=c1[nH]c(=O)n(COCCO)c2ccsc12
GI50: > 100 µM (inactive)
--
molecule: COc1ccc(-n2cnc3c(N)nc(N)nc32)cc1
GI50: 45.7 µM (inactive)
--
molecule: CN(C)CC/C(=N\Nc1ccc(Cl)cc1)c1ccccc1
GI50: 2.15 µM (inactive)
--
molecule: c1csc(-c2cscc2-c2ccsc2)c1
GI50: > 52.1 µM (inactive)
--
molecule: CCCCCCNC(=O)c1cc(NCc2cc(OC)ccc2OC)ccc1O
GI50: 26.1 µM (inactive)
--
molecule: C[C@H](C(=O)C12CC3CC(CC(C3)C1)C2)[C@H](O)c1ccccc1
GI50: 27 µM (inactive)
--
molecule: COc1cc(OC)cc(-c2cc(O)c3cc4c(cc3n2)OCO4)c1
GI50: 2.32 µM (inactive)
--
molecule: O=C(O)CNC(=O)CO/N=C1/C(=C2/C(=O)Nc3ccccc32)Nc2ccccc21
GI50: > 100 µM (inactive)
--
molecule: CSc1nc(NC2OC(CO)C(O)C(O)C2O)c(N)c(=O)[nH]1 (stereo unspecified)
GI50: > 100 µM (inactive)
--
molecule: Cn1c(N)c(/N=N/c2ccc(S(N)(=O)=O)cc2)c(=O)n(C)c1=O
GI50: 22.6 µM (inactive)

###

Test system: SF-539
method-notes: NCI tumour cell line growth inhibition, 48 h
Active and inactive are the calls of the source. No stated cut-off is given here; in the data, active = GI50 up to about 1.1 µM and inactive = higher.
Outcome codes: class 1 for active, class 0 for inactive

compound: Nc1ncnc2c1nnn2C1C=C(CO)C(O)C1O (stereo not given)
assigned-category: class 0
//
compound: Nc1nc(CCC(=O)Nc2cccc(C(F)(F)F)c2)cc(-c2cccc3ccccc23)n1
assigned-category: class 0
//
compound: O=C1c2cccc3cc4ccccc4c(c23)C(=O)N1CCNCCNCCNCCN1C(=O)c2cccc3cc4ccccc4c(c23)C1=O
assigned-category: class 1
//
compound: COc1cc(OC)c2c(c1OC)OCC(Cc1ccc(O)cc1)C2=O (stereo not given)
assigned-category: class 0
//
compound: C=C(CN(C)C)C(=O)c1ccc(Oc2ccccc2)cc1
assigned-category: class 0

###

System: SN12C
method-notes: NCI tumour cell line growth inhibition, 48 h
Active and inactive are the calls of the source. Cut-off read from the data, not from the text of the source: active = GI50 up to about 1.1 µM and inactive = higher.
Consider the following compounds and their measured GI50 readings.
measure: GI50

compound: O=C(Nc1ccc(Cl)cc1Cl)OC(Cn1cncn1)c1ccc(Cl)cc1Cl (centres undefined)
recorded-measurement: 16.9 µM (inactive)
--
compound: CCN(CC)Cc1cc(Nc2c3ccccc3nc3c4ccccc4n(C)c23)cc(CN(CC)CC)c1O
recorded-measurement: 6.61 µM (inactive)
--
compound: O=C1C(=O)N(c2cccc(C(F)(F)F)c2)C(=S)N1c1ccccc1
recorded-measurement: 34.4 µM (inactive)
--
compound: CC1=C(C(=O)Nc2ccccc2C)C(/C=C/c2ccccc2)C(C(=O)Nc2ccccc2C)=C(C)N1
recorded-measurement: > 100 µM (inactive)
--
compound: CC1C2CCC3C(O)C2(CC(O)C2(O)C1CC(O)C2(C)C)CC3(C)O (centres undefined)
recorded-measurement: > 100 µM (inactive)
--
compound: COC(=O)C1=C(OC(=O)/C=C/c2ccccc2)C(C(=O)OC)[C@@]2(O)[C@@H](C(=O)OC)[C@H](C)C[C@@H]1[C@@H]2C(=O)OC (some centres undefined)
recorded-measurement: 13.9 µM (inactive)
--
compound: NNc1ncc2c(n1)-c1ccccc1OC2
recorded-measurement: 71.6 µM (inactive)
--
compound: C[C@H](C(=O)C12CC3CC(CC(C3)C1)C2)[C@H](O)c1ccccc1
recorded-measurement: 19.5 µM (inactive)
--
compound: CC1(C)COC(c2cccc3c2C(=O)c2cccc(Cl)c2-3)=N1
recorded-measurement: 74 µM (inactive)
